# Procedure summary: Haemolytic activity in human erythrocytes assessed as induction of hemolysis incubated for 1 hr
# Assay type: cell-based, Erythrocyte
Metric name: HC50 at 1 h (µM)
Write the answer as a number in µM, unit excluded.

Example molecules with recorded HC50 at 1 h:
                                   molecule  measure_unit  assay_result
0  CCCCCCN(Cc1cccc2ccccc12)C(=O)C(CCCCNC(=O)OC(C)(C)C)NC(=O)OC(C)(C)C.O=C(O)C(F)(F)F.O=C(O)C(F)(F)F (centres undefined)            µM           850
1  CCCCCCCCN(Cc1ccccc1)C(=O)C(CCCCNC(=O)OC(C)(C)C)NC(=O)OC(C)(C)C (centres undefined)            µM           564

Task item: Find the recorded HC50 at 1 h belonging to CCCCCCCCN(Cc1cccc2ccccc12)C(=O)C(CCCCNC(=O)OC(C)(C)C)NC(=O)OC(C)(C)C (centres undefined) and report it.
Reply: 96

###

Reported selectivity ratio values are given for each entry in this list.
# Procedure summary: Selectivity index, ratio of HC50 for haemolytic activity in human erythrocytes to IC50 for antimalarial activity against Plasmodium falciparum 3D7 cultured in human O+ erythrocytes
# Assay type: toxicity, cell-based
# Particulars: read-out: Selectivity Index
In your answer, state the number alone without any accompanying words.

Example compounds with recorded selectivity ratio:
In [3]: df
Out[3]:
                                   compound  assay_result
0  CCCCCCCCN(Cc1ccccc1)C(=O)C(CCCCNC(=O)OC(C)(C)C)NC(=O)OC(C)(C)C (stereo not drawn)           141
1  CCCCCCN(Cc1cccc2ccccc12)C(=O)C(CCCCNC(=O)OC(C)(C)C)NC(=O)OC(C)(C)C.O=C(O)C(F)(F)F.O=C(O)C(F)(F)F (stereo not drawn)           850

Proceed to the following item.
Task item: Find the recorded selectivity ratio belonging to CCCCCCCCN(Cc1cccc2ccccc12)C(=O)C(CCCCNC(=O)OC(C)(C)C)NC(=O)OC(C)(C)C (stereo not drawn) and report it.
Reply: 32

###

# Tested on: Plasmodium falciparum
# Procedure summary: Antimalarial activity against […] Plasmodium falciparum RKL9 cultured in human O+ erythrocytes assessed as reduction in parasite growth incubated for 48 hrs by SYBR green I based fluorescence assay
# Assay type: functional, organism-based
# Particulars: RKL9, 48 h
Metric name: pIC50
When answering, recall that pIC50 equals minus log10 of the concentration in mol/L, and write that number alone.

Task item: Report pIC50 for CCCCCCN(Cc1cccc2ccccc12)C(=O)C(CCCCNC(=O)OC(C)(C)C)NC(=O)OC(C)(C)C.O=C(O)C(F)(F)F.O=C(O)C(F)(F)F (stereo unspecified) tested on Plasmodium falciparum.
Reply: 5.85
